System: E. coli TESEC Mtb Alr
Assay: growth (OD600 after 10 h); higher = more growth (less inhibition)
Conditions: arabinose 1000000 nM; compound 0.1 mM; raw OD600 reference: median of DMSO wells 0.193, cell-free background 0.041
Where a name gives a salt, the structure may show the parent alone.

| MOLECULE | growth |
| --- | --- |
| CC1(C)OC(=O)NC1=O [Dimethadione] | 0.184 |
| CCOC(=O)OC(C)OC1=C(C(=O)Nc2ccccn2)N(C)S(=O)(=O)c2ccccc21 (centres undefined) [Ampiroxicam] | 0.165 |
| CC/C(=C(\c1ccccc1)c1ccc(OCCN(C)C)cc1)c1ccccc1 [Tamoxifen citrate] | 0.0485 |
| CCN(CC)CCOC(=O)C1(C2CCCCC2)CCCCC1 [Dicyclomine hydrochloride] | 0.0645 |
| CCCC1O[C@@H]2C[C@H]3[C@@H]4CCC5=CC(=O)C=C[C@]5(C)[C@H]4[C@@H](O)C[C@]3(C)[C@]2(C(=O)CO)O1 (some centres undefined) [Budesonide] | 0.112 |
| CC(C)NCC(O)COc1cccc2[nH]ccc12 (centres undefined) [Pindolol] | 0.179 |
| COCCOC(=O)C1=C(C)NC(C)=C(C(=O)OC/C=C/c2ccccc2)C1c1cccc([N+](=O)[O-])c1 (centres undefined) [Cilnidipine] | 0.14 |
| CCN(CC)CCNC(=O)c1cc(Br)c(N)cc1OC [Bromopride] | 0.181 |
| CN(C)CCCN1c2ccccc2CCc2ccc(Cl)cc21 [Clomipramine hydrochloride] | 0.04 |
| O=C(O)[C@H]1/C(=C/CO)O[C@@H]2CC(=O)N21 [Clavulanate potassium salt] | 0.195 |
| CC(C)[C@H]1CC[C@H](C(=O)N[C@H](Cc2ccccc2)C(=O)O)CC1 [Nateglinide] | 0.114 |
| CCN(CCCCOC(=O)c1ccc(OC)c(OC)c1)C(C)Cc1ccc(OC)cc1 (centres undefined) [Mebeverine hydrochloride] | 0.125 |
| OC(CCN1CCCC1)(c1ccccc1)C1CCCCC1 (centres undefined) [Procyclidine hydrochloride] | 0.163 |
| CN1CCCN=C1/C=C/c1cccc(O)c1 [Oxantel pamoate] | 0.141 |
| Cc1ccc(N(CC2=NCCN2)c2cccc(O)c2)cc1 [Phentolamine hydrochloride] | 0.173 |
| CN(C)CCC=C1c2ccccc2C=Cc2ccccc21 [Cyclobenzaprine hydrochloride] | 0.0898 |
| Cc1ccc(-c2cc(C(F)(F)F)nn2-c2ccc(S(N)(=O)=O)cc2)cc1 [Celecoxib] | 0.0418 |
| COC(=O)Nc1nc2cc([S+]([O-])c3ccccc3)ccc2[nH]1 (centres undefined) [Oxfendazol] | 0.165 |
| COc1cc(-c2ccc(=O)[nH]n2)ccc1OC(F)F [Zardaverine] | 0.171 |
